In this section, each of the molecules is paired with its reported TGI IGROV.
Test system: IGROV-1
Assay: SRB colorimetric assay of cell growth and viability, IGROV-1
Type: cell-based, human
Settings: IGROV; 48 hours exposure
Protocol: The finality of this assay is to interrupt the growth of a “in vitro” tumor cell culture by means a continued exhibition of the cells to the sample to be testing. […] Cells are seeded in 96 well microtiter plates, at 5×10^3 cells per well in aliquots of 195 μL medium, and they are allowed to attach to the plate surface by growing in drug free medium for 18 hours. […] Optical densities are read on a automated spectrophotometric plate reader at a single wavelength of 490 nm. […]
Where a SMILES comes first, the peptide text is derived from it. Bridges are numbered along the chain shown (N, C = ends). [ ]: non-standard residue; d: D form. The star is where a group is joined. Bip = N[C@@H](Cc1ccc(-c2ccccc2)cc1)C(=O)O; d(aIle) = CC[C@H](C)[C@@H](N)C(=O)O; d(aThr) = C[C@@H](O)[C@@H](N)C(=O)O; Hexanoyl(5-Me) = CC(C)CCCC(=O)*; Phg = N[C@H](C(=O)O)c1ccccc1; Orn = NCCC[C@H](N)C(=O)O; Dhb = C/C=C(\N)C(=O)O
Only the number, expressed in Molar, is required.

Molecule	Subject Of Test	Value
C/C=C1\NC(=O)[C@H](c2ccccc2)NC(=O)[C@@H](C(C)C)NC(=O)[C@@H]([C@@H](C)CC)NC(=O)[C@H](NC(=O)[C@H](NC(=O)[C@H](CCCN)NC(=O)[C@H]2CCCN2C(=O)[C@H](NC(=O)[C@@H](NC(=O)[C@@H](NC(=O)[C@H](NC(=O)CCCC(C)C)C(C)C)[C@@H](C)O)C(C)C)C(C)C)[C@@H](C)CC)[C@@H](C)OC(=O)[C@H](C(C)C)NC1=O [Compound 87, [Phg^3]-KF] ({Hexanoyl(5-Me)}-[dV]TV[dV][dP][Orn][d(aIle)][d(aThr)][d(aIle)][dV][Phg][Dhb]V; ester 8-C)	IGROV-1	1.90E−06
C/C=C1\NC(=O)[C@H](Cc2cccc(Cl)c2)NC(=O)[C@@H](C(C)C)NC(=O)[C@@H]([C@@H](C)CC)NC(=O)[C@H](NC(=O)[C@H](NC(=O)[C@H](CCCN)NC(=O)[C@H]2CCCN2C(=O)[C@H](NC(=O)[C@@H](NC(=O)[C@@H](NC(=O)[C@H](NC(=O)CCCC(C)C)C(C)C)[C@@H](C)O)C(C)C)C(C)C)[C@@H](C)CC)[C@@H](C)OC(=O)[C@H](C(C)C)NC1=O [Compound 82, [Phe(3-Cl)^3]-KF]	IGROV-1	1.13E−07

Q: Output measured TGI IGROV for this item: C/C=C1\NC(=O)[C@H](Cc2ccccc2)NC(=O)[C@@H](C(C)C)NC(=O)[C@@H]([C@@H](C)CC)NC(=O)[C@H](NC(=O)[C@H](NC(=O)[C@H](CCCN)NC(=O)[C@H]2CCCN2C(=O)[C@H](NC(=O)[C@@H](NC(=O)[C@@H](NC(=O)[C@@H](CCCN)NC(=O)CCCC(C)C)[C@@H](C)O)C(C)C)C(C)C)[C@@H](C)CC)[C@@H](C)OC(=O)[C@H](C(C)C)NC1=O [Compound 118, [D-Orn^13]-KF]
Ans: 2.76E−06

Q: Please list TGI IGROV recorded for the molecule C/C=C1\NC(=O)[C@H](Cc2ccccc2)NC(=O)[C@@H](C(C)C)NC(=O)[C@@H]([C@@H](C)CC)NC(=O)[C@H](NC(=O)[C@H](NC(=O)[C@H](CCCN)NC(=O)[C@H]2CCCN2C(=O)[C@H](NC(=O)[C@@H](NC(=O)[C@H](CC(C)C)NC(=O)[C@H](NC(=O)CCCC(C)C)C(C)C)C(C)C)C(C)C)[C@@H](C)CC)[C@@H](C)OC(=O)[C@H](C(C)C)NC1=O [Compound 113, [Leu^12]-KF] ({Hexanoyl(5-Me)}-[dV]LV[dV][dP][Orn][d(aIle)][d(aThr)][d(aIle)][dV]F[Dhb]V; ester 8-C)
Ans: 1.70E−06

Q: Note TGI IGROV for the molecule shown: C/C=C1\NC(=O)[C@H](Cc2ccccc2)NC(=O)[C@@H](C(C)C)NC(=O)[C@@H]([C@@H](C)CC)NC(=O)[C@H](NC(=O)[C@H](NC(=O)[C@H](CCCN)NC(=O)[C@H]2CCCN2C(=O)[C@H](NC(=O)[C@@H](NC(=O)[C@@H]2CCCN2C(=O)[C@H](NC(=O)CCCC(C)C)C(C)C)C(C)C)C(C)C)[C@@H](C)CC)[C@@H](C)OC(=O)[C@H](C(C)C)NC1=O [Compound 117, [Pro^12]-KF] ({Hexanoyl(5-Me)}-[dV]PV[dV][dP][Orn][d(aIle)][d(aThr)][d(aIle)][dV]F[Dhb]V; ester 8-C)
Ans: 3.70E−06

Q: Please look at this molecule and report its TGI IGROV: C/C=C1\NC(=O)[C@H](Cc2ccc(-c3ccccc3)cc2)NC(=O)[C@@H](C(C)C)NC(=O)[C@@H]([C@@H](C)CC)NC(=O)[C@H](NC(=O)[C@H](NC(=O)[C@H](CCCN)NC(=O)[C@H]2CCCN2C(=O)[C@H](NC(=O)[C@@H](NC(=O)[C@@H](NC(=O)[C@H](NC(=O)CCCC(C)C)C(C)C)[C@@H](C)O)C(C)C)C(C)C)[C@@H](C)CC)[C@@H](C)OC(=O)[C@H](C(C)C)NC1=O [Compound 86, [Bip^3]-KF] ({Hexanoyl(5-Me)}-[dV]TV[dV][dP][Orn][d(aIle)][d(aThr)][d(aIle)][dV][Bip][Dhb]V; ester 8-C)
Ans: 5.23E−07

---

system: SK-MEL-28; test: SRB colorimetric assay of cell growth and viability, SK-MEL-28; format: cell-based, human; conditions: 48 hours exposure, SRB; read-out: LC50 MEL-28
Where a SMILES comes first, the peptide text is derived from it. Bridges are numbered along the chain shown (N, C = ends). [ ]: non-standard residue; d: D form. The star is where a group is joined. d(aIle) = CC[C@H](C)[C@@H](N)C(=O)O; d(aThr) = C[C@@H](O)[C@@H](N)C(=O)O; Hexanoyl(5-Me) = CC(C)CCCC(=O)*; Orn = NCCC[C@H](N)C(=O)O; Dha = C=C(N)C(=O)O
Property Name: CC50
The number alone won't do; follow it with the unit.

Q: State its CC50 for this compound: C=C1NC(=O)[C@H](Cc2ccccc2)NC(=O)[C@@H](C(C)C)NC(=O)[C@@H]([C@@H](C)CC)NC(=O)[C@H](NC(=O)[C@H](NC(=O)[C@H](CCCN)NC(=O)[C@H]2CCCN2C(=O)[C@H](NC(=O)[C@@H](NC(=O)[C@@H](NC(=O)[C@H](NC(=O)CCCC(C)C)C(C)C)[C@@H](C)O)C(C)C)C(C)C)[C@@H](C)CC)[C@@H](C)OC(=O)[C@H](C(C)C)NC1=O [Compound 67, [Dha^2]-KF] ({Hexanoyl(5-Me)}-[dV]TV[dV][dP][Orn][d(aIle)][d(aThr)][d(aIle)][dV]F[Dha]V; ester 8-C)
Ans: 4.51 µM

---

test system: HT-29; assay: SRB colorimetric assay of cell growth and viability, HT-29; type: cell-based, human; details: HT-29; 48 hours exposure; read-out: LC50 HT-29
Where a SMILES comes first, the peptide text is derived from it. Bridges are numbered along the chain shown (N, C = ends). [ ]: non-standard residue; d: D form. The star is where a group is joined. d(aIle) = CC[C@H](C)[C@@H](N)C(=O)O; d(aThr) = C[C@@H](O)[C@@H](N)C(=O)O; Hexanoyl(5-Me) = CC(C)CCCC(=O)*; Orn = NCCC[C@H](N)C(=O)O; Dhb = C/C=C(\N)C(=O)O
Property Name: CC50 (µM)
API: value field is a number in µM; no unit string.

Q: Retrieve CC50 measured for C/C=C1\NC(=O)[C@H](Cc2ccccc2)NC(=O)[C@@H](C(C)C)NC(=O)[C@@H]([C@@H](C)CC)NC(=O)[C@H](NC(=O)[C@H](NC(=O)[C@H](CCCN)NC(=O)[C@H]2CCCN2C(=O)[C@H](NC(=O)[C@@H](NC(=O)[C@H](C)NC(=O)[C@H](NC(=O)CCCC(C)C)C(C)C)C(C)C)C(C)C)[C@@H](C)CC)[C@@H](C)OC(=O)[C@H](C(C)C)NC1=O [Compound 112, [Ala^12]-KF] ({Hexanoyl(5-Me)}-[dV]AV[dV][dP][Orn][d(aIle)][d(aThr)][d(aIle)][dV]F[Dhb]V; ester 8-C) and print it.
Ans: 4.45

All figures here come from patent US20070117743A1.
